Numbers sourced from patent US10836770B2.

assay_target: recombinantly expressed His-tagged protein corresponding to amino acids 575-869 of human Tyk2 (Homo sapiens, UniProt P29597)
Construct: made in house
Sequence (P29597 with tags, fused parts or gaps): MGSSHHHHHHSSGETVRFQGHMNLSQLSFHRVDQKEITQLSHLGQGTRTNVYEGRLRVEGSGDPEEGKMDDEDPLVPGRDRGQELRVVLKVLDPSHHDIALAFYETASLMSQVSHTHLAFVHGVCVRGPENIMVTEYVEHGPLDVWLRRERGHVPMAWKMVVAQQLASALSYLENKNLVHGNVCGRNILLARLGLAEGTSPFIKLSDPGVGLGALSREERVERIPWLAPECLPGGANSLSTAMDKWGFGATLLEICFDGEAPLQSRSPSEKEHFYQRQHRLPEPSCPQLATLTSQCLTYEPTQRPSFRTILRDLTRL
test_protocol: Probe displacement assay (scintillation proximity, radiolabeled probe)
Assay type: binding
log10 EC50 values by entry
In our notation, the value equals log10 of EC50 in nM.

Some solved cases for reference:
CNc1cc(Nc2cc(C(=O)Nc3ccccc3)n(C)n2)nn2c(C(=O)NC3CC3)cnc12: 2.56
CNc1cc(Nc2scnc2C(=O)NC(C)C)nn2c(C(=O)NC3CC3)cnc12: 0.51
CNc1cc(Nc2cn(C)nc2C(=O)NCCCN(C)C)nn2c(C(=O)NC3CC3)cnc12: 1.70
CNc1cc(Nc2cn(C)nc2C(=O)Nc2ccccc2)nn2c(C(=O)NC3CC3)cnc12: 0.48
CNc1cc(Nc2cn(C)nc2C(=O)Nc2ccccn2)nn2c(C(=O)NC3CC3)cnc12: 0.88

Q: I would be grateful if you could share the reported log10 EC50 for CNc1cc(Nc2cnn(C)c2C(=O)Nc2ccccc2)nn2c(C(=O)NC3CC3)cnc12 .
A: 1.70

Q: Record request: log10 EC50 value, item CNc1cc(Nc2cn(C)nc2C(=O)NC(C)C)nn2c(C(=O)NC3CC3)cnc12
A: 1.48

Q: Entry CNC(=O)c1cn(C)nc1Nc1cc(NC)c2ncc(C(=O)NC3CC3)n2n1 has what log10 EC50?
A: 0.68

Q: Find the recorded log10 EC50 belonging to CNc1cc(Nc2cn(C)nc2C(=O)Nc2ccc(OC)nc2)nn2c(C(=O)NC3CC3)cnc12 and report it.
A: 1.30

Q: Need log10 EC50, item CCn1cc(Nc2cc(NC)c3ncc(C(=O)NC4CC4)n3n2)c(C(=O)NC)n1
A: 1.30

Q: I am curious: what log10 EC50 value has been reported for CNc1cc(Nc2scnc2C(=O)Nc2ccccc2)nn2c(C(=O)NC3CC3)cnc12 ?
A: 0.60

Q: Name the reported log10 EC50 value associated with the compound CNC(=O)c1occc1Nc1cc(NC)c2ncc(C(=O)NC3CC3)n2n1
A: 0.58

Q: Entry CNc1cc(Nc2c[nH]nc2C(=O)Nc2ccc(OC)nc2)nn2c(C(=O)NC3CC3)cnc12 : reported log10 EC50 = ?
A: 0.39

Q: Which log10 EC50 is listed for CNc1cc(Nc2cn(C)nc2C(=O)Nc2ccc3ncsc3c2)nn2c(C(=O)NC3CC3)cnc12 ?
A: 0.92

Q: Look at this compound and give its reported log10 EC50. CNc1cc(Nc2ccoc2C(=O)Nc2ccc(OC)nc2)nn2c(C(=O)NC3CC3)cnc12
A: 0.46
